System: HOP-18
Assay: NCI tumour cell line growth inhibition, 48 h
The source made the active and inactive calls. Rule as the data show it: active = GI50 up to about 1.1 µM and inactive = higher.
Let's look at some compounds and their measured GI50.

A selection of reference data follows.
{"columns": ["COMPOUND", "ASSAY TARGET", "MEASURED METRIC", "RECORDED VALUE"],
 "data": [
  ["CCCCN(CCCC)C(=O)C(=O)CC(=O)c1ccc(Br)cc1", "HOP-18", "GI50", "> 100 µM (inactive)"],
  ["CC(C)(Br)C(Br)CC/C(=C/CBr)CBr.CC(C)(Br)C(Br)CC/C(=C\\CBr)CBr (centres undefined)", "HOP-18", "GI50", "18 µM (inactive)"]
]}

Problem: Bench note: what GI50 did COc1cc(/C=C/c2ccc(Br)cc2)cc(OC)c1OC show?
Result: 6.61 µM (inactive)

Problem: Note, next up: CCN(CC)CCNc1ccc2nnn3c4ccc(O)cc4c(=O)c1c23
Result: 20.5 µM (inactive)

Problem: Note, next up: NNC(=O)CNC(=O)c1ccc(Cl)cc1Cl
Result: > 100 µM (inactive)

Problem: Note, next up: C=C[C@H]1C=Cc2c(OC)cccc2[C@@H]1COP1(=S)NC(C)C(c2ccccc2)O1 (some centres undefined)
Result: > 100 µM (inactive)

Problem: Note, next up: COc1ccc(OC)c2c(C(=O)O)c(C(C)c3ccccc3)ccc12 (centres undefined)
Result: > 100 µM (inactive)

Problem: Note, next up: CC(C)(Oc1ccc(C(=O)c2ccc(Cl)cc2)cc1Cl)C(=O)N1CCN(c2ccccc2)CC1
Result: > 100 µM (inactive)

Problem: Note, next up: O=C1NC2C(O)CCCCC2C12CCCCC2 (centres undefined)
Result: > 100 µM (inactive)

---

Tested on: HT-29
Experiment: NCI tumour cell line growth inhibition, 48 h
Active and inactive are the calls of the source. Rule as the data show it: active = GI50 up to about 1.1 µM and inactive = higher.
MEASURED METRIC: GI50

A selection of reference data follows.
{"columns": ["MOLECULE", "MEASURED METRIC", "RECORDED VALUE"],
 "data": [
  ["CCOP(=O)(OCC)C(N)Cc1ccc(OC)c(OC)c1 (stereo not drawn)", "GI50", "> 100 µM (inactive)"],
  ["O=C1c2ccccc2N(O)C1(c1ccccc1)C1CCCC=C1N1CCOCC1 (stereo not drawn)", "GI50", "> 100 µM (inactive)"],
  ["COCCOc1cc(C)cc(/C=C(C)/C=C/C2=C(C)CCCC2(C)C)n1", "GI50", "28.6 µM (inactive)"],
  ["CN1CCC23c4c5ccc(O)c4OC2c2[nH]c4ccccc4c2CC3(O)C1C5 (stereo not drawn)", "GI50", "31.9 µM (inactive)"],
  ["C[C@]12Cc3cn[nH]c3C(=O)C1CC[C@@H]1C2CC[C@@]2(C)C1CC[C@@H]2O (stereo partly drawn)", "GI50", "> 100 µM (inactive)"],
  ["CNC(=O)/C(C#N)=C(\\N)N1CCCC1", "GI50", "> 100 µM (inactive)"],
  ["CCC(C)C(=O)OCC(=O)c1ccc(-c2ccccc2)cc1 (stereo not drawn)", "GI50", "34.6 µM (inactive)"],
  ["CC(N)C(=O)OCN1C(=O)C2C3C=CC(C2C1=O)C1C2C(=O)N(COC(=O)C(C)N)C(=O)C2C31 (stereo not drawn)", "GI50", "34.6 µM (inactive)"],
  ["c1ccc([P+](CCN2Cc3ccccc3C2)(c2ccccc2)c2ccccc2)cc1", "GI50", "3.52 µM (inactive)"],
  ["O=c1cc(-c2ccccc2)oc2cc(OCC(O)COc3ccc4c(=O)cc(-c5ccccc5)oc4c3)ccc12", "GI50", "> 100 µM (inactive)"]
]}

Problem: Bench note: what GI50 did COc1ccc(-c2oc3cc(OC)c(OC)c(O)c3c(=O)c2OC)cc1 show?
Result: > 100 µM (inactive)

Problem: Note, next up: O[C@H]1[C@H]2[C@H](O)C[C@H](CCOCc3ccccc3)CN2C[C@H]1O
Result: > 100 µM (inactive)

Problem: Note, next up: NC(=O)COC(=O)c1c(Cl)nc2sccn12
Result: > 100 µM (inactive)

---

Let's look at some compounds and their measured GI50.
System: SK-MEL-28
Assay: NCI tumour cell line growth inhibition, 48 h
Calls of active or inactive are those of the source. Cut-off read from the data, not from the text of the source: active = GI50 up to about 1.1 µM and inactive = higher.

Problem: Bench note: what GI50 did CN(CCO)Cc1ncccc1O show?
Result: > 100 µM (inactive)

Problem: Note, next up: CCOC(=O)C1=C(NC(C)(C)C)OCC1=O
Result: > 100 µM (inactive)

---

System: SK-OV-3
Assay: NCI tumour cell line growth inhibition, 48 h
The source made the active and inactive calls. Rule as the data show it: active = GI50 up to about 1.1 µM and inactive = higher.
MEASURED METRIC: GI50

Problem: Bench note: what GI50 did CC(=O)NNc1nc(C)c(C(=O)NNC(=O)C(=O)Nc2ccc([N+](=O)[O-])cc2C#N)s1 show?
Result: > 100 µM (inactive)

Problem: Note, next up: C[C@]12Cc3cn[nH]c3C(=O)C1CC[C@@H]1C2CC[C@@]2(C)C1CC[C@@H]2O (stereo partly drawn)
Result: > 100 µM (inactive)

Problem: Note, next up: COC(=O)[C@@H]1CN(C(=O)CCc2ccccc2)C(=O)N1
Result: > 100 µM (inactive)

---

Test system: OVCAR-8
Test: NCI tumour cell line growth inhibition, 48 h
Active and inactive are the calls of the source. Rule as the data show it: active = GI50 up to about 1.1 µM and inactive = higher.
Let's look at some molecules and their measured GI50.

A selection of reference data follows.
{"columns": ["MOLECULE", "RECORDED VALUE"],
 "data": [
  ["Cc1cccc(/C=N/NC(=S)NCCc2ccccn2)n1", "27.9 µM (inactive)"],
  ["ClCc1ccc2ccc3ccc(CCl)nc3c2n1", "3.36 µM (inactive)"],
  ["COc1ccc(-c2cc(-c3ccccc3)n(C3OC(COC(C)=O)C(OC(C)=O)C(OC(C)=O)C3OC(C)=O)c(=S)c2C#N)cc1 (stereo not drawn)", "3.58 µM (inactive)"],
  ["CC(=O)N1c2ccccc2C23CCN(C)CC4C(C)OCC(C4CC2=O)C13 (stereo not drawn)", "> 100 µM (inactive)"]
]}

Problem: Bench note: what GI50 did C[C@]12CC[C@H](O)CC1=CC[C@@H]1[C@@H]2CC[C@]2(C)C(=N/O)/C(=C/c3ccc([N+](=O)[O-])cc3)C[C@@H]12 show?
Result: 2.82 µM (inactive)

Problem: Note, next up: CC(=O)OCc1c(C)c2ccccc2n1C(C)=O
Result: 49 µM (inactive)

Problem: Note, next up: O=P1(Oc2ccccc2)N=P(c2ccccc2)(c2ccccc2)C=C(c2ccc(Cl)cc2)N1 (stereo not drawn)
Result: 14.4 µM (inactive)

Problem: Note, next up: CCC(C)C(=O)OCC(=O)c1ccc(-c2ccccc2)cc1 (stereo not drawn)
Result: 79.3 µM (inactive)

Problem: Note, next up: CC(C)(Br)C(Br)CC/C(=C/CBr)CBr.CC(C)(Br)C(Br)CC/C(=C\CBr)CBr (stereo not drawn)
Result: 2.54 µM (inactive)

Problem: Note, next up: O=C(O)C1CC(c2ccccc2)=NN1c1ccccc1 (stereo not drawn)
Result: > 100 µM (inactive)

---

System: SN12C
Test: NCI tumour cell line growth inhibition, 48 h
Active and inactive are the calls of the source. Cut-off read from the data, not from the text of the source: active = GI50 up to about 1.1 µM and inactive = higher.
Your reply should match one of these outcome classes. t for active, f for inactive

The following molecules have reported results that may help.
{"columns": ["MOLECULE", "CATEGORY LABEL"],
 "data": [
  ["C=C(C=O)c1c2c(nc3ccccc13)C(=O)c1ccccc1C2=O", "t"],
  ["Clc1ccc(CCNCCNC2(c3cc4ccccc4s3)CCCCC2)cc1Cl", "f"],
  ["CN1C(=O)CCC1c1ccc2c(c1)oc(=O)n2C (centres undefined)", "f"]
]}

Problem: Would you mind telling me which call this test gave CC1NC(=O)C(C)C(c2ccccc2)N(N=O)C1c1ccccc1 (centres undefined) ?
Result: f

---

Test system: EKVX
Assay: NCI tumour cell line growth inhibition, 48 h
Activity calls are given as the source filed them. No stated cut-off is given here; in the data, active = GI50 up to about 1.1 µM and inactive = higher.
MEASURED METRIC: GI50

A selection of reference data follows.
{"columns": ["MOLECULE", "ASSAY TARGET", "GI50"],
 "data": [
  ["COc1c(C)c(O)c2c(c1C)OC(c1ccccc1)CC2=O (centres undefined)", "EKVX", "65.2 µM (inactive)"],
  ["Oc1ccc2c3c1OC1c4[nH]c5c(c4CC4(O)C(C2)N(CC2CC2)CC[C@]314)CC1(O)C2Cc3ccc(O)c4c3[C@@]1(CCN2CC1CC1)C5O4 (some centres undefined)", "EKVX", "35.6 µM (inactive)"],
  ["O=C(O)C1CC(c2ccccc2)=NN1c1ccccc1 (centres undefined)", "EKVX", "24 µM (inactive)"],
  ["CCCCCC[C@H]([C@H](C)O)n1cnc2c(N)ncnc21", "EKVX", "> 100 µM (inactive)"]
]}

Kindly consider the entry below.
Problem: Bench note: what GI50 did COc1cc(/C=C/c2ccc(/C=C/c3cc(OC)c(OC)c(OC)c3)cc2)cc(OC)c1OC show?
Result: > 46.9 µM (inactive)
